Recorded values, source patent US9394282B2.

Biological target: JAK1 (Homo sapiens (Human), UniProt P23458)
Sequence (P23458 875-1153): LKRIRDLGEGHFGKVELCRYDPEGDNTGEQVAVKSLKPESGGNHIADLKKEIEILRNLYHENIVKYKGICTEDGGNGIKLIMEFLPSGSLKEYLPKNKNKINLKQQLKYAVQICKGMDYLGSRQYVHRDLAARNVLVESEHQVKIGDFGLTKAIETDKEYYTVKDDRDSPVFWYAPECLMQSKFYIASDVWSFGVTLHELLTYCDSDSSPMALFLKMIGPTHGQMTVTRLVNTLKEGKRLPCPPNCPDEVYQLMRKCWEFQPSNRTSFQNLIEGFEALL
Experiment: Jak biochemical HTRF assay, JAK1
Conditions: recombinant purified GST-tagged catalytic domain; HTRF format; [ATP] 31.8 μM
Assign IC50 to each entry below.
Write down the value, and be sure its unit follows.

(Q) Name the recorded IC50 of the compound listed here: N#C[C@@H]1CCN(C(=O)OC2COC2)CC1n1cc(C(N)=O)c(Nc2ccc(F)cc2)n1 (mixture of isomers) [Example 5-89]
(A) 3 nM

(Q) Name the recorded IC50 of the compound listed here: CCOC(=O)N1CC[C@@H](C#N)C(n2cc(C(N)=O)c(Nc3ccc(F)cc3)n2)C1 (mixture of isomers) [Example 5-76]
(A) 5 nM

(Q) Name the recorded IC50 of the compound listed here: N#C[C@H]1CCOC[C@@H]1n1cc(C(N)=O)c(Nc2cncc(F)c2)n1 (single isomer, unassigned) [Example 9-30]
(A) 83 nM

(Q) Name the recorded IC50 of the compound listed here: N#C[C@@H]1CN(C(=O)OC2COC2)CC[C@H]1n1cc(C(N)=O)c(Nc2ccc(F)cc2)n1 (racemic) [Example 5-5]
(A) 12 nM

(Q) Name the recorded IC50 of the compound listed here: N#C[C@@H]1CN(C(=O)OCC(F)(F)CO)CC[C@@H]1n1cc(C(N)=O)c(Nc2ccc(F)cc2)n1 (racemic) [Example 5-67]
(A) 69 nM

(Q) Name the recorded IC50 of the compound listed here: CCn1ccnc1CN1CC[C@@H](n2cc(C(N)=O)c(Nc3ccc(F)cc3)n2)[C@H](C#N)C1 (racemic) [Example 6-38]
(A) 7 nM

(Q) Name the recorded IC50 of the compound listed here: N#C[C@H]1CCOC[C@@H]1n1cc(C(N)=O)c(Nc2cnc3cc(Cl)ccc3c2)n1 (single isomer, unassigned) [Example 9-22]
(A) 0.5 nM

(Q) Name the recorded IC50 of the compound listed here: Cn1nccc1CN1CC[C@@H](C#N)[C@H](n2cc(C(N)=O)c(Nc3ccc(F)cc3)n2)C1 (racemic) [Example 6-13]
(A) 2 nM

(Q) Name the recorded IC50 of the compound listed here: N#C[C@@H]1CN(C(=O)OCCCc2ccccc2)CC[C@@H]1n1cc(C(N)=O)c(Nc2ccc(F)cc2)n1 (racemic) [Example 5-55]
(A) 350 nM

(Q) Name the recorded IC50 of the compound listed here: N#C[C@@H]1CN(C(=O)OCCc2ccccc2)CC[C@H]1n1cc(C(N)=O)c(Nc2ccc(F)cc2)n1 (racemic) [Example 5-36]
(A) 86 nM

(Q) Name the recorded IC50 of the compound listed here: N#C[C@@H]1CCN(Cc2ccc(F)cn2)C[C@H]1n1cc(C(N)=O)c(Nc2ccc(F)cc2)n1 (racemic) [Example 6-16]
(A) 0.7 nM

(Q) Name the recorded IC50 of the compound listed here: N#C[C@@H]1CCN(Cc2cnccn2)C[C@H]1n1cc(C(N)=O)c(Nc2ccc(F)cc2)n1 (racemic) [Example 6-2]
(A) 2 nM

(Q) Name the recorded IC50 of the compound listed here: CC(C)(C)OC(=O)N1CC[C@@H](n2cc(C(N)=O)c(Nc3ccccc3)n2)[C@H](C#N)C1 (mixture of isomers) [Example 1-2]
(A) 24 nM

(Q) Name the recorded IC50 of the compound listed here: CN1CCC(OC(=O)N2CC[C@@H](n3cc(C(N)=O)c(Nc4ccc(F)cc4)n3)[C@H](C#N)C2)CC1 (racemic) [Example 5-26]
(A) 58 nM

(Q) Name the recorded IC50 of the compound listed here: Cc1c(CN2CC[C@@H](n3cc(C(N)=O)c(Nc4ccc(F)cc4)n3)[C@H](C#N)C2)cnn1C (racemic) [Example 6-34]
(A) 10 nM

(Q) Name the recorded IC50 of the compound listed here: N#C[C@@H]1CN(C(=O)OCC2(N)CC2)CC[C@H]1n1cc(C(N)=O)c(Nc2ccc(F)cc2)n1 (racemic) [Example 5-8]
(A) 13 nM

(Q) Name the recorded IC50 of the compound listed here: N#C[C@@H]1CN(C(=O)OC(CF)CF)CC[C@@H]1n1cc(C(N)=O)c(Nc2ccc(F)cc2)n1 (racemic) [Example 5-47]
(A) 121 nM

(Q) Name the recorded IC50 of the compound listed here: N#C[C@@H]1CN(C(=O)OCCF)CC[C@@H]1n1cc(C(N)=O)c(Nc2ccc(F)cc2)n1 (racemic) [Example 5-58]
(A) 102 nM

(Q) Name the recorded IC50 of the compound listed here: CC1(c2ccc(Nc3nn([C@@H]4COCC[C@H]4C#N)cc3C(N)=O)cc2)COC1 (single isomer, unassigned) [Example 9-26]
(A) 6 nM

(Q) Name the recorded IC50 of the compound listed here: C[C@@H]1C[C@H](C#N)[C@@H](n2cc(C(N)=O)c(Nc3ccnc(F)c3)n2)CO1 (mixture of isomers) [Example 10-1]
(A) 5 nM

(Q) Name the recorded IC50 of the compound listed here: N#C[C@@H]1CN(C(=O)OCCN2CCOCC2)CC[C@H]1n1cc(C(N)=O)c(Nc2ccc(F)cc2)n1 (racemic) [Example 5-4]
(A) 29 nM

(Q) Name the recorded IC50 of the compound listed here: CC1=NOC(CN2CC[C@@H](n3cc(C(N)=O)c(Nc4ccc(F)cc4)n3)[C@H](C#N)C2)C1 (mixture of isomers) [Example 6-39]
(A) 4 nM

(Q) Name the recorded IC50 of the compound listed here: CC(C)(COC(=O)N1CC[C@@H](n2cc(C(N)=O)c(Nc3ccc(F)cc3)n2)[C@H](C#N)C1)n1cccn1 (racemic) [Example 5-27]
(A) 92 nM

(Q) Name the recorded IC50 of the compound listed here: CCOC(=O)COC(=O)N1CC[C@@H](n2cc(C(N)=O)c(Nc3ccc(F)cc3)n2)[C@H](C#N)C1 (racemic) [Example 5-38]
(A) 3 nM

(Q) Name the recorded IC50 of the compound listed here: N#C[C@@H]1CCN(C(=O)OCC(F)(F)CO)CC1n1cc(C(N)=O)c(Nc2ccc(F)cc2)n1 (mixture of isomers) [Example 5-74]
(A) 1 nM

(Q) Name the recorded IC50 of the compound listed here: CC(C)(O)C1CC(CN2CC[C@@H](C#N)[C@H](n3cc(C(N)=O)c(Nc4ccc(F)cc4)n3)C2)C1 (mixture of isomers) [Example 6-11]
(A) 25 nM
